Values from ChEMBL document CHEMBL1201862

I'd appreciate it if you could supply GI50 values for the items below.
# Tested on: T47D
# method: NCI tumour cell line growth inhibition, 48 h
Activity calls are given as the source filed them. Cut-off read from the data, not from the text of the source: active = GI50 up to about 1.1 µM and inactive = higher.

Ask | Data request, read-out GI50, for COc1ccc(S(=O)(=O)Nc2ccc(-c3csc(N4C(=O)/C(=C/c5cccs5)N=C4c4ccccc4)n3)cc2)cc1Cl
Reply | 19.9 µM (inactive)

Ask | Which value of GI50 has been reported for CCOC(=O)Cc1cnc(NC(NC(=O)CC)(C(F)(F)F)C(F)(F)F)s1 in the records?
Reply | > 100 µM (inactive)

Ask | Name the recorded GI50 for COC(=O)CCC(=O)NC1=C(NCc2ccccc2)C(=O)c2ccccc2C1=O .
Reply | 34 µM (inactive)

Ask | I would be grateful if you could share the reported GI50 for O=C1CN(c2ccccc2)Cc2nc(Cl)ccc2N1 .
Reply | > 100 µM (inactive)

Ask | Look at this compound and give its reported GI50. CCC1(CC)C(=O)N(C(=O)c2ccccc2)N(C(=O)c2ccc(Cl)cc2)C1=O
Reply | > 75 µM (inactive)

Ask | Query: GI50; subject: O=Nn1c2ccccc2c2cc([N+](=O)[O-])ccc21
Reply | 31.1 µM (inactive)

Ask | Which measured GI50 value corresponds to CC(C)(C)c1ccc(/C=N/NC(=O)CSCC(=O)N/N=C/c2ccc(C(C)(C)C)cc2)cc1 ?
Reply | 4.88 µM (inactive)

Ask | # lookup: GI50 of CC1(C)N=C(/C(Cl)=[N+](/[O-])C(=O)c2ccc(Cl)cc2)C(C)(C)N1O
Reply | 38.3 µM (inactive)

Ask | Fill in the blank: the reported GI50 of Cc1cc(S(=O)(=O)NC2=Nc3cccc4cccc(c34)N2)c(S)cc1Cl is ____.
Reply | > 100 µM (inactive)

Ask | Item OC(CCNCc1ccccc1)c1ccc2ccccc2c1 (stereo not drawn) has what recorded GI50?
Reply | 24 µM (inactive)

Ask | Give the measured GI50 of CC12CCCC3(CC(=O)C(C)(C)C3C(=O)C1)C2 (stereo not drawn) .
Reply | > 100 µM (inactive)

Ask | Quick one: GI50 for COCCn1cnc2c(Cl)nc(Nc3ccccc3)nc21 ?
Reply | 29.8 µM (inactive)

Ask | Look up GI50: CCNCCNc1c2ccccc2nc2ccccc12
Reply | 2.38 µM (inactive)

* * *

# System: ACHN
# method: NCI tumour cell line growth inhibition, 48 h
Active and inactive are the calls of the source. No stated cut-off is given here; in the data, active = GI50 up to about 1.1 µM and inactive = higher.
value-type: GI50

Ask | What does the data say about its GI50? Entry: CCOC(=O)/C=C(/C(=O)OCC)n1cc(C)c(=O)n(/C(=C/C(=O)OCC)C(=O)OCC)c1=O
Reply | 1.89 µM (inactive)

Ask | Entry under review: OC1=CN=C(c2ccccc2)Oc2ccccc21 . Reported GI50?
Reply | > 100 µM (inactive)

Ask | Request the reported GI50 associated with CC(C)/C=C1\CCC(CN(C)C)C1=O (stereo unspecified)
Reply | 5.82 µM (inactive)

Ask | Looking for the measured GI50 of COc1ccc(NC2=NCCO2)c2c1CCCC2 , can you help?
Reply | 29.6 µM (inactive)

Ask | For Cc1ccc(NC(=O)CC(=O)N2N=C(N(c3ccccc3)c3ccccc3)CC2c2ccccc2)cc1 (stereo unspecified) , what is its reported GI50?
Reply | > 100 µM (inactive)

Ask | Recorded GI50 for OC(CCl)CN1CC[N+]2(CC1)CC[N+]1(CCN(CC(O)CCl)CC1)CC2 (stereo unspecified) [PROSPIDIUM CHLORIDE] , please?
Reply | > 50 µM (inactive)
